Reference for the values: paper PMC6508984

# assay.target: UniProtKB P19493
# Sequence (P19493 22-902 isoform P19493-2 limits assumed): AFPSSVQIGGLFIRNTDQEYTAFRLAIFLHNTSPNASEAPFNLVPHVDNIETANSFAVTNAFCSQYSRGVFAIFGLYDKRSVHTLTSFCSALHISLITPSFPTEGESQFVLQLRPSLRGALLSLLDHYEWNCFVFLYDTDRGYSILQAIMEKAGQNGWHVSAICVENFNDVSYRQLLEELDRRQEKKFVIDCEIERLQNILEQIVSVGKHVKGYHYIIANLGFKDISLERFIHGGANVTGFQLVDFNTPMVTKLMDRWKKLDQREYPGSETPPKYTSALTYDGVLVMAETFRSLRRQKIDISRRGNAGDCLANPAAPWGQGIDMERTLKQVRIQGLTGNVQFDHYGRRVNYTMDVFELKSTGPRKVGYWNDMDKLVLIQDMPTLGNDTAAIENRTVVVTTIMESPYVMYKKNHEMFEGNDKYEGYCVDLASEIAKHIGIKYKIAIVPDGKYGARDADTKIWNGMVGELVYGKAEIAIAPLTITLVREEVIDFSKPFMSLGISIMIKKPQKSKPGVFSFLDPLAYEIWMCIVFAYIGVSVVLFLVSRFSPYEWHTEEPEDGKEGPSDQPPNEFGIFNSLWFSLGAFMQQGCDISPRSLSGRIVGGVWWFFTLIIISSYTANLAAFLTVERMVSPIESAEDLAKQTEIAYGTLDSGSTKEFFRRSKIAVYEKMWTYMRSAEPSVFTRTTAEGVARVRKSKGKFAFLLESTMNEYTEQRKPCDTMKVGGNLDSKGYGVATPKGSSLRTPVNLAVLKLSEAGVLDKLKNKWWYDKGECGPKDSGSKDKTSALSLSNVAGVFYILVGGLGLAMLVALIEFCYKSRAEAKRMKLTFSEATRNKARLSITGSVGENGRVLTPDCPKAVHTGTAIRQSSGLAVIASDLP
# assay.details: cell-based
# condition.details: GluA4i EC50, HEK293; 10 mM Ca2+ and 100 μM cyclothiazide; tested up to 1000 μM
quantity: EC50

Query string: Under UniProtKB P19493: EC50 value of CCn1nc(O)c(CC(N)C(=O)O)n1 (racemic) ?
Result string: > 1000 µM
